METRIC: melting point

MOLECULE	melting point
CCOC(=O)CSc1c(C)[nH]c2ccccc12	72 to 75 °C
CCCCCCCCCCCCCCCCCC(=O)OC1CCC2(C)C(=CCC3C2CCC2(C)C(C(C)CCCC(C)C)CCC32)C1 (stereo not drawn)	79 to 83 °C

Now examine the next entry.
*Q* Return reported melting point; argument: COC(=O)c1ccc(C(C)=O)cc1
*A* 93 to 95 °C

====

Catalogue of melting point values

Previously resolved entries follow.
COMPOUND	melting point
CCCOC(=O)C1=C(C)NC(C)=C(C(=O)OCCC)C1c1cccc(OC)c1O	166 to 168 °C
O=C1c2ccccc2C(=O)C1(Cl)c1ccccc1	115 to 116 °C
COC(=O)Nc1nc2ccc(C(=O)c3cccs3)cc2[nH]1	300 to 305 °C
N#CC1=C(N)Oc2[nH]nc(C(F)(F)F)c2C1c1ccc(O)cc1 (configuration not stated)	197 °C
OCc1ccccc1O[C@@H]1O[C@H](CO)[C@@H](O)[C@H](O)[C@H]1O	198 to 200 °C

*Q* Return reported melting point; argument: Cc1ccc(S(=O)(=O)OC2CCC3(C)C(CCC4C5CCCC5(C)CCC43)C2)cc1 (configuration not stated)
*A* 129 to 131 °C

*Q* Now this one: C=Cc1ccc2c(c1)OCCOCCOCCOCCOCCO2
*A* 57 to 60 °C

====

METRIC: melting point

Previously resolved entries follow.
MOLECULE	METRIC	MEASURED RESULT
Cc1ccc(OC2CCC3C4CCC5CC(=O)CCC5(C)C4CCC23C)cc1 (stereo not drawn)	melting point	148 to 153 °C
CSc1ccc(-n2c(-c3ccccc3)cc(C(=O)O)c2C)cc1	melting point	202 to 203 °C

Now examine the next entry.
*Q* Return reported melting point; argument: O=Cc1ccc(OCc2ccccc2)c(Cl)c1
*A* 93 to 94 °C

====

METRIC: melting point (°C)

COMPOUND	RESULT UNITS	melting point
CC12CCC(/C(=C\Nc3ccccc3C(=O)O)C1=O)C2(C)C (configuration not stated)	°C	176

(A) O=[N+]([O-])c1cc([N+](=O)[O-])c(/C=C/c2cccc3c2OCO3)cc1/C=C/c1cccc2c1OCO2
(B) CCCCCCCC=O
*Q* Sorting by melting point in descending order, would A or B appear first? Selection: enter the item's label.
*A* A
(A: 215 °C, B: 12.5 °C)

(a) CC(=O)N1c2ccccc2CC1c1ccccc1 (configuration not stated)
(b) OC(Cc1ccccc1)c1ccccc1 (configuration not stated)
*Q* Input pair: a , b . Output: entry with lower melting point. Selection: enter the item's label.
*A* b

(1) O=C(O)CC(CC(=O)O)c1ccc(Cl)cc1
(2) CCC=Cc1ccccc1
*Q* Sorting by melting point in descending order, would 1 or 2 appear first? Selection: enter the item's label.
*A* 1

(A) COc1c(OC)c(OC(C)=O)c2c(Cl)cccc2c1OC(C)=O
(B) CCCC1C(=O)N2C(N(C)C)=Nc3ccc(C)cc3N2C1=O (configuration not stated)
(C) CCCCCCCCCCCCCCS
*Q* Could you please order the items by melting point, going from the lowest number to the highest? Record the ranking as a list of labels in the requested order.
*A* C, A, B

(A) NS(=O)(=O)c1cccc(Cl)c1
(B) COc1ccccc1-c1nnc2n1NC(c1ccco1)S2 (configuration not stated)
*Q* Sorting by melting point in descending order, would A or B appear first? Selection: enter the item's label.
*A* B
(B: 226 °C, A: 146 °C)
